# experimental.protocol: Acute toxicity test, single oral dose, rats
# Assay type: in vivo, Slc:SD rats
# experimental.parameters: male, Slc:SD, rat, in vivo, po, Rat ♂; single oral dose; read-out: LD50 (Oral administration)
measurement.kind: LD50

# input Could you tell me which LD50 is on file for "CN(C(=O)CN(CCO)CC(=O)N(C)C(C)(C)Cc1ccccc1)C(C)(C)Cc1ccccc1" ?
# output ≥ 1000 mg/kg

---

# System: H. pylori
# experimental.protocol: Antimicrobial activity test 1: anti-H. pylori activity of a single compound (agar plate method)
# Type: cell-based, Helicobacter pylori
# experimental.parameters: Helicobacter pylori, strain 90-388; read-out: MIC (growth inhibition)
Recorded MIC for the following molecules
The answer is to be given in µg/mL; state only the numeric part.

Solved cases below.
# input Data request, read-out MIC, for COc1ccc2[nH]c([S+]([O-])Cc3ncc(C)c(OC)c3C)nc2c1 (stereo not shown)
# output 50

# input Entry Cc1c(OCC(F)(F)F)ccnc1C[S+]([O-])c1nc2ccccc2[nH]1 (stereo not shown) please
# output 3.13

---
# input Recorded MIC of "COCCCOc1ccnc(CSc2nc3ccccc3[nH]2)c1C" , please.
# output 1.56

# input Please answer likewise for "CN(C(=O)CN(CCO)CC(=O)N(C)C(C)(C)Cc1ccccc1)C(C)(C)Cc1ccccc1"
# output 25

---

# Tested on: H. pylori
# experimental.protocol: Antimicrobial activity test 1: anti-H. pylori activity of a single compound (agar plate method)
# Assay type: cell-based, Helicobacter pylori
# experimental.parameters: Helicobacter pylori, NCTC11916, strain NCTC11916; read-out: MIC (growth inhibition)
Parameter MIC: see the listing below.
Please state the figure in µg/mL; there is no need to write the unit.

These solved cases illustrate the format of a correct answer.
# input Value lookup for MIC; key = COCCCOc1ccnc(CSc2nc3ccccc3[nH]2)c1C [Compound (II)]
# output 1.56

# input Same for CN(C(=O)CN(CCO)CC(=O)N(C)C(C)(C)Cc1ccccc1)C(C)(C)Cc1ccccc1 [Oxethazaine]
# output 25

# input Proceed to COc1ccc2[nH]c([S+]([O-])Cc3ncc(C)c(OC)c3C)nc2c1 (stereo not shown) [Compound (III), omeprazole]
# output 50

Continue with the next compound.
# input // lookup MIC for Cc1c(OCC(F)(F)F)ccnc1C[S+]([O-])c1nc2ccccc2[nH]1 (stereo not shown) [Compound (IV), lansoprazole]
# output 6.25

---

# Test system: H. pylori
# experimental.protocol: Antimicrobial activity test 1: anti-H. pylori activity of a single compound (agar plate method)
# Type: cell-based, Helicobacter pylori
# experimental.parameters: Helicobacter pylori, strain 90-414; read-out: MIC (growth inhibition)
measurement.kind: MIC (µg/mL)
Please reply with the bare figure in µg/mL and do not write the unit itself.

Solved cases below.
# input Entry COc1ccc2[nH]c([S+]([O-])Cc3ncc(C)c(OC)c3C)nc2c1 (stereo not shown) [Compound (III), omeprazole] : reported MIC = ?
# output 50

# input One more compound: Cc1c(OCC(F)(F)F)ccnc1C[S+]([O-])c1nc2ccccc2[nH]1 (stereo not shown) [Compound (IV), lansoprazole]
# output 6.25

# input Further, for CN(C(=O)CN(CCO)CC(=O)N(C)C(C)(C)Cc1ccccc1)C(C)(C)Cc1ccccc1 [Oxethazaine] ?
# output 25

Moving on to the next compound.
# input Request the reported MIC associated with COCCCOc1ccnc(CSc2nc3ccccc3[nH]2)c1C [Compound (II)]
# output 0.8

---

# Test system: H. pylori
# experimental.protocol: Antimicrobial activity test 1: anti-H. pylori activity of a single compound (agar plate method)
# Assay type: cell-based, Helicobacter pylori
# experimental.parameters: Helicobacter pylori, strain 90-388 (1); read-out: MIC (growth inhibition)
Below, each of the compounds is paired with its reported MIC value.
All answers are understood in µg/mL, so give the number only.

# input Hello, I am looking for reported MIC with H. pylori for COCCCOc1ccnc(CSc2nc3ccccc3[nH]2)c1C [Compound (II)] . Could you help?
# output 0.8

# input Request: CN(C(=O)CN(CCO)CC(=O)N(C)C(C)(C)Cc1ccccc1)C(C)(C)Cc1ccccc1 [Oxethazaine]
# output 25

# input Follow-up item: COc1ccc2[nH]c([S+]([O-])Cc3ncc(C)c(OC)c3C)nc2c1 (stereo not shown) [Compound (III), omeprazole]
# output 25

Let's switch to this compound now.
# input H. pylori / MIC / Cc1c(OCC(F)(F)F)ccnc1C[S+]([O-])c1nc2ccccc2[nH]1 (stereo not shown) [Compound (IV), lansoprazole] : value?
# output 6.25

---

# Tested on: H. pylori
# experimental.protocol: Antimicrobial activity test 1: anti-H. pylori activity of a single compound (agar plate method)
# Format: cell-based, Helicobacter pylori
# experimental.parameters: Helicobacter pylori, strain 89-357; read-out: MIC (growth inhibition)
MIC values, listed per item
Kindly answer with a numeric value in µg/mL, unit omitted.

Worked examples, 3 molecules total:
# input # MIC lookup, item COCCCOc1ccnc(CSc2nc3ccccc3[nH]2)c1C [Compound (II)]
# output 0.8

# input And the next one, Cc1c(OCC(F)(F)F)ccnc1C[S+]([O-])c1nc2ccccc2[nH]1 (stereo not shown) [Compound (IV), lansoprazole] ?
# output 6.25

# input One more molecule: COc1ccc2[nH]c([S+]([O-])Cc3ncc(C)c(OC)c3C)nc2c1 (stereo not shown) [Compound (III), omeprazole]
# output 50

***
# input For CN(C(=O)CN(CCO)CC(=O)N(C)C(C)(C)Cc1ccccc1)C(C)(C)Cc1ccccc1 [Oxethazaine] , what is its reported MIC?
# output 25

---

# Test system: H. pylori
# experimental.protocol: Antimicrobial activity test 1: anti-H. pylori activity of a single compound (agar plate method)
# Assay type: cell-based, Helicobacter pylori
# experimental.parameters: Helicobacter pylori, strain 90-428; read-out: MIC (growth inhibition)
Recorded MIC by entry
Write the value in mg/L as a bare number.

# input What value of MIC has been recorded for this entry: "CN(C(=O)CN(CCO)CC(=O)N(C)C(C)(C)Cc1ccccc1)C(C)(C)Cc1ccccc1"
# output 25

Further cases:
# input Quick check: MIC of Cc1c(OCC(F)(F)F)ccnc1C[S+]([O-])c1nc2ccccc2[nH]1 (stereo not shown) ?
# output 6.25

# input // next record COc1ccc2[nH]c([S+]([O-])Cc3ncc(C)c(OC)c3C)nc2c1 (stereo not shown)
# output 50

# input Entry to check: "COCCCOc1ccnc(CSc2nc3ccccc3[nH]2)c1C"
# output 1.56

---

# Tested on: H. pylori
# experimental.protocol: Antimicrobial activity test 1: anti-H. pylori activity of a single compound (agar plate method)
# Format: cell-based, Helicobacter pylori
# experimental.parameters: Helicobacter pylori, strain EH12; read-out: MIC (growth inhibition)
measurement.kind: MIC (µg/mL)
Report only the number, with the unit µg/mL understood.

Solved entries:
# input Field request: MIC | item: CN(C(=O)CN(CCO)CC(=O)N(C)C(C)(C)Cc1ccccc1)C(C)(C)Cc1ccccc1 [Oxethazaine]
# output 25

# input Also Cc1c(OCC(F)(F)F)ccnc1C[S+]([O-])c1nc2ccccc2[nH]1 (stereo not shown) [Compound (IV), lansoprazole] , if possible.
# output 3.13

# input Note, next up: COCCCOc1ccnc(CSc2nc3ccccc3[nH]2)c1C [Compound (II)]
# output 0.8

Next compound, MIC to be filled in.
# input Looking for the measured MIC of COc1ccc2[nH]c([S+]([O-])Cc3ncc(C)c(OC)c3C)nc2c1 (stereo not shown) [Compound (III), omeprazole] , can you help?
# output 25

---

Below, each of the compounds is paired with its reported MIC value.
# Test system: H. pylori
# experimental.protocol: Antimicrobial activity test 1: anti-H. pylori activity of a single compound (agar plate method)
# Assay type: cell-based, Helicobacter pylori
# experimental.parameters: Helicobacter pylori, strain 90-390 (1); read-out: MIC (growth inhibition)

Field: example entries. Status: answers known.
# input Data request, read-out MIC, for "CN(C(=O)CN(CCO)CC(=O)N(C)C(C)(C)Cc1ccccc1)C(C)(C)Cc1ccccc1"
# output 25 µg/mL

# input Repeat for the following compound: COc1ccc2[nH]c([S+]([O-])Cc3ncc(C)c(OC)c3C)nc2c1 (stereo not shown)
# output 25 µg/mL

# input And what about the compound "COCCCOc1ccnc(CSc2nc3ccccc3[nH]2)c1C" ?
# output 0.8 µg/mL

Turning now to a further compound:
# input Data request, read-out MIC, for Cc1c(OCC(F)(F)F)ccnc1C[S+]([O-])c1nc2ccccc2[nH]1 (stereo not shown)
# output 6.25 µg/mL
